Assay target: LlFpg WT (Lactococcus lactis) (UniProt P42371)
Sequence: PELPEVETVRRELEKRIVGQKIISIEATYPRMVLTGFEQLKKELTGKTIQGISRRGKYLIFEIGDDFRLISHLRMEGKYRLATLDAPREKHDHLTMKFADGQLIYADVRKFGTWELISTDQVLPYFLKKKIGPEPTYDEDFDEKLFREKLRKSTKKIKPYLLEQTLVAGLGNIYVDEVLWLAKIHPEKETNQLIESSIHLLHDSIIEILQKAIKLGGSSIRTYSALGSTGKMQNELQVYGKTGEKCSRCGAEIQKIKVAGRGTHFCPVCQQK
Assay text: EMSA
Conditions: apparent Kd; 8% DMSO; N at position 7 of strand 1 = tetrahydrofuran (THF) abasic site analogue, opposite C; EMSA: 0.1 nM 32P-labelled 14-mer THF-DNA, 0-16 nM LlFpg (2 nM in 2TX assays), 20 min at 4 C / on ice, with or without 8% DMSO; buffer and pH as in cited …
Experimental endpoint: pKd
The read-out pKd is expressed as -log10 of concentration in moles per litre.

[ask] # lookup: pKd of CTCTTTNTTTCTCG / GCGAGAAACAAAGA [14-mer THF-DNA]
[reply] 8.52

Reference source: paper PMC4176347
